# Test system: MCP-I
# assayProtocol: MCP-I cytokine elevation in serum
# Assay type: in vivo
# runParameters: cirRNA (SEQ ID NO: 1) LNPs, mice, 24 hours
Property: MCP-I in Sera 24 hours After 0.5 MPK Injection; scope: individual compounds
measuredProperty: MCP-I in Sera 24 hours After 0.5 MPK Injection (pg/mL)

INSERT INTO assay_data (compound, scaleunit, result) VALUES
  ('CCCCC/C=C\C/C=C\CCCCCCCCN(CCCCCC(=O)OCC(CCCCCCCC)CCCCCCCCCC)CCOC(=O)NCCN(C)C (stereo not drawn)', 'pg/mL', 93.14),
  ('CCCCCCCCCCC(CCCCCCCC)COC(=O)CCCCCN(CCCCCC(=O)OCC(CCCCCCCC)CCCCCCCCCC)CCOC(=O)NCCN(C)C (stereo not drawn)', 'pg/mL', 922.24),
  ('CCCCCCCCCCC(CCCCCCCC)COC(=O)CCCCCN(CCCCCC(=O)OCC(CCCCCCCC)CCCCCCCCCC)CCCOC(=O)NCCN1CCCCC1 (stereo not drawn)', 'pg/mL', 1652.33),
  ('CCCCCCCCC(CCCCCCCC)OC(=O)CCCCCCCN(CCCCCCCCOC(=O)C(CCCCCC)CCCCCCCC)CCCOC(=O)NCCCN(C)C (stereo not drawn)', 'pg/mL', 128.60),
  ('CCCCC/C=C\C/C=C\CCCCCCCCN(CCCCCCCC(=O)OC(CCCCCCCC)CCCCCCCC)CCCOC(=O)NCCCn1ccnc1', 'pg/mL', 120.48),
  ('CCCCC/C=C\C/C=C\CCCCCCCCN(CCCCCCCC(=O)OC(CCCCCCCC)CCCCCCCC)CCOC(=O)NCc1ncc[nH]1', 'pg/mL', 96.56);

* * *

# Tested on: BALB/C mice
# assayProtocol: In vivo expression, whole-body luminescence (IVIS)
# runParameters: cirRNA (SEQ ID NO: 1) LNPs, BALB/C mice
Property: In vivo Expression (Whole Body); scope: individual molecules
measuredProperty: In vivo Expression (Whole Body)

INSERT INTO results (molecule, result) VALUES
  ('CCCCCCCCC(CCCCCC)C(=O)OCCCCCCCCN(CCCCCCCCOC(=O)C(CCCCCC)CCCCCCCC)CCCOC(=O)NCCCN(CC)CC (stereo not drawn)', '1.16E+08'),
  ('CCCCCCCCCCCOC(=O)CCCCCN(CCCCCC(=O)OCCCCCCCCCCC)CCOC(=O)NCCN1CCCC1', '1.18E+05'),
  ('CCCCCCCCCC(=O)OCCCCCCCN(CCCCCCCCOC(=O)C(CCCCCC)CCCCCCCC)CCCOC(=O)NCCN1CCN(C)CC1 (stereo not drawn)', '1.68E+06'),
  ('CCCCCCCC/C=C\CCCCCCCCN(CCCCCCCCOC(=O)C(CCCCCC)CCCCCCCC)CCOC(=O)NCCCn1ccnc1 (stereo not drawn)', '7.35E+06'),
  ('CCCCCCCCC(CCCCCC)C(=O)OCCCCCCCCN(CCCCCCCCOC(=O)C(CCCCCC)CCCCCCCC)CCCOC(=O)NCCN1CCN(C)CC1 (stereo not drawn)', '8.84E+06'),
  ('CCCCC/C=C\C/C=C\CCCCCCCCN(CCCCCCCC(=O)OC(CCCCCCCC)CCCCCCCC)CCCOC(=O)NCCN1CCOCC1', '2.06E+07');
